# maps each entry to its IC50
study.target: hA2a/CHO (Homo sapiens (Human), UniProt P29274)
Sequence (P29274 whole entry): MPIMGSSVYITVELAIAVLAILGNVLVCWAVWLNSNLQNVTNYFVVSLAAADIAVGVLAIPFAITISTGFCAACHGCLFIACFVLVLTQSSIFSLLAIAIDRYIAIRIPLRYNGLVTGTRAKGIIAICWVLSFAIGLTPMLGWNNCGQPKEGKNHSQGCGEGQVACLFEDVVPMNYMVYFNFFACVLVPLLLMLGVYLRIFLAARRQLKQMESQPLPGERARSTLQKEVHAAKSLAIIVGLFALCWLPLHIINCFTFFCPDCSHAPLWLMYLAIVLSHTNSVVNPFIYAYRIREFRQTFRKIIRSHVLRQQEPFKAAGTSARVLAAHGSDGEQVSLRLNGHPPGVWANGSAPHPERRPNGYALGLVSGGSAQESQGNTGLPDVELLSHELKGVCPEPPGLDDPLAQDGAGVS
test.summary: cAMP inhibition assay in hA2a/CHO cells, 10 μM adenosine;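 note: compounds added to cells 30 min ahead of adenosine, then a further 30 min at 37 °C with adenosine before cAMP detection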
Format: cell-based
measurement.context: read-out: cAMP & FLIPR IC50 (nM) hA2a
metric.name: IC50 (nM)

>>> value_measured("Cc1cnc2ccc(-c3nc(C(=O)NC(C)Cn4cncn4)c(N)nc3-c3ncco3)cn12 (racemic) [Example 306]")
14
>>> value_measured("COc1ccccc1CNC(=O)c1nc(-c2cc(C)nc(C)c2)c(-c2ccc(F)cc2)nc1N [Example 89]")
17
>>> value_measured("COc1ccccc1CNC(=O)c1nc(-c2cc(C)nc(C)c2)c(-n2ccc(C)n2)nc1N [Example 75]")
6.1
>>> value_measured("Cn1cc(-c2nc(C(=O)NCc3c(F)cccc3OC(F)F)c(N)nc2-c2ccc(F)cc2)ccc1=O [Example 73]")
0.4
>>> value_measured("Cc1cnc2ccc(-c3nc(C(=O)NCCC(=O)N(C)C)c(N)nc3-c3ncco3)cn12 [Example 143]")
1.7
>>> value_measured("CC(O)Cn1cc(-c2nc(C(=O)NCc3c(F)cccc3F)c(N)nc2-c2ncco2)ccc1=O (single isomer, unassigned) [Example 107]")
76
>>> value_measured("CN(C)c1cccc(CNC(=O)c2nc(-c3ccc(=O)n(C)c3)c(-c3ccc(F)cc3)nc2N)n1 [Example 13]")
6.1
>>> value_measured("Cc1cc(-c2nc(C(=O)NCc3ccccc3C(F)F)c(N)nc2-c2ccc(F)cc2)cc(C)n1 [Example 55]")
133
>>> value_measured("CC(O)Cn1cc(-c2nc(C(=O)NCc3c(F)cccc3F)c(N)nc2-c2ncco2)ccc1=O (single isomer, unassigned) [Example 108]")
0.6
>>> value_measured("Cc1cnc2ccc(-c3nc(C(=O)NCc4cccc(N5CC6(CCN(C)C6)C5)n4)c(N)nc3-c3ncco3)cn12 [Cmpd. 175]")
0.9
>>> value_measured("Cc1cnc2ccc(-c3nc(C(=O)NCCc4nccn4C)c(N)nc3-c3ncco3)cn12 [Example 205]")
2
>>> value_measured("Cc1cnc2ccc(-c3nc(C(=O)NC[C@@H]4CCOC4)c(N)nc3-c3ncco3)cn12 [Example 137]")
1.7
>>> value_measured("COC1CCCC(NC(=O)c2nc(-c3ccc4ncc(C)n4c3)c(-c3ncco3)nc2N)C1 (single isomer, unassigned; isomer 2) [Example 293]")
0.4
>>> value_measured("Cc1cnc2ccc(-c3nc(C(=O)NCC4(C)CCCN4C)c(N)nc3-c3ncco3)cn12 (single isomer, unassigned; isomer 2) [Example 247]")
36

###

study.target: hADORA1/CHO (hA1 expressing) cells (Homo sapiens (Human), UniProt P30542)
Sequence (P30542 whole entry): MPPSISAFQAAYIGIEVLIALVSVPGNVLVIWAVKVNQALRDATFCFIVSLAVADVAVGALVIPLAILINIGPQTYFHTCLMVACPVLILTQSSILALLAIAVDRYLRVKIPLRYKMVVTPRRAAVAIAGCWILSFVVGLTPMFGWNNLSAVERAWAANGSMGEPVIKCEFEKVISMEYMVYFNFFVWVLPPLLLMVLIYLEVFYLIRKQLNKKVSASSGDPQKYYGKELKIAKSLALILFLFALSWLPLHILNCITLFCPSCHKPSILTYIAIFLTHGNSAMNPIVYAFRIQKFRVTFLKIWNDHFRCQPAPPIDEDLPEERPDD
test.summary: cell-based
measurement.context: FLIPR inhibition, 10 μM adenosine, read-out: cAMP & FLIPR IC50 (nM) hA1
Rule for this label: met means IC50 is less than 4000 nM; not met means IC50 is at least 4000 nM.

>>> assigned_category("CNc1cccc(CNC(=O)c2nc(-c3ccc4nccn4c3)c(-c3ncco3)nc2N)n1 [Example 99]")
"met"
>>> assigned_category("CN(C)c1cccc(CNC(=O)c2nc(-c3ccc(=O)n(C)c3)c(-c3ncco3)nc2N)c1F [Example 33]")
"met"
>>> assigned_category("Cc1cnc2ccc(-c3nc(C(=O)NCCN4CCCC4=O)c(N)nc3-c3ncco3)cn12 [Example 208]")
"not met"
>>> assigned_category("Cc1cnc2ccc(-c3nc(C(=O)NCC4CCN(C)C4=O)c(N)nc3-c3ccc(F)cc3)cn12 (single isomer, unassigned; isomer 2) [Example 256]")
"met"
>>> assigned_category("Cc1cnc2ccc(-c3nc(C(=O)NCC4CC4)c(N)nc3-c3ncco3)cn12 [Example 155]")
"met"
>>> assigned_category("Cc1cnc2ccc(-c3nc(C(=O)NC[C@H]4CCCN4)c(N)nc3-c3ncco3)cn12 [Example 122]")
"not met"
>>> assigned_category("Cc1cnc2ccc(-c3nc(C(=O)NCC4(C)CCOC4)c(N)nc3-c3ncco3)cn12 (single isomer, unassigned; isomer 1) [Example 251]")
"met"

Provenance of the data: patent US10898481B2
